Values were extracted from the supplement of paper PMC10127200.

tested on: A549; test: Euclidean distance of Cell Painting phenotypic profile (signed KS, 77 features) to DMSO centroid (dimensionless distance); 5 or 10 uM (library dependent); higher = stronger phenotypic change vs DMSO (phenoactivity); settings: 48 h
Entries annotated with measured Euclidean distance
Property name: Euclidean distance

{"Compound": "CCCCCCCCCC(=O)N[C@H]1[C@H](Oc2c3cc4cc2Oc2ccc(cc2Cl)[C@@H](O[C@@H]2O[C@H](CO)[C@@H](O)[C@H](O)[C@H]2NC(C)=O)[C@@H]2NC(=O)[C@H](NC(=O)[C@@H]4NC(=O)[C@H]4NC(=O)[C@@H](Cc5ccc(c(Cl)c5)O3)NC(=O)[C@H](N)c3ccc(O)c(c3)Oc3cc(O)cc4c3)c3ccc(O)c(c3)-c3c(OC4O[C@H](CO)[C@@H](O)[C@H](O)[C@@H]4O)cc(O)cc3[C@@H](C(=O)O)NC2=O)O[C@H](CO)[C@@H](O)[C@@H]1O (some centres not stated)", "Property name": "Euclidean distance", "Result": 1.18}
{"Compound": "O=C(COc1ccc(C(=O)c2ccccc2)cc1)NC1CCN(Cc2ccccc2)CC1", "Property name": "Euclidean distance", "Result": 0.958}

----------
system: FB; experiment: Euclidean distance of Cell Painting phenotypic profile (signed KS, 77 features) to DMSO centroid (dimensionless distance); 5 or 10 uM (library dependent); higher = stronger phenotypic change vs DMSO (phenoactivity); conditions: 48 h
Consider the following compounds and their measured Euclidean distance readings.
Property name: Euclidean distance

{"Record smiles": "CC(C)NC[C@@H](C(=O)N1CCN(c2ncnc3c2[C@H](C)C[C@H]3O)CC1)c1ccc(Cl)cc1", "Property name": "Euclidean distance", "Result": 2.24}
{"Record smiles": "COc1cc(N2CCC(N3CCN(C)CC3)CC2)ccc1Nc1ncc(Cl)c(Nc2ccccc2P(C)(C)=O)n1", "Property name": "Euclidean distance", "Result": 4.2}
{"Record smiles": "O=C(/C=C/c1ccc(CN(CCO)CCc2c[nH]c3ccccc23)cc1)NO", "Property name": "Euclidean distance", "Result": 3.59}
{"Record smiles": "CC(=O)Nc1ccc(CC(=O)O)cc1", "Property name": "Euclidean distance", "Result": 1.09}
{"Record smiles": "CC1(C)CC(=O)c2c(C(F)(F)F)nn(-c3ccc(C(N)=O)c(N[C@H]4CC[C@H](O)CC4)c3)c2C1", "Property name": "Euclidean distance", "Result": 3.59}

----------
tested on: 786-O; assay: Euclidean distance of Cell Painting phenotypic profile (signed KS, 77 features) to DMSO centroid (dimensionless distance); 5 or 10 uM (library dependent); higher = stronger phenotypic change vs DMSO (phenoactivity); settings: 48 h
Where a name gives a salt, the structure may show the parent alone.
Reported Euclidean distance values follow for various molecules

{"Molecule": "O=C(c1ccc(F)c(F)c1Nc1ccc(I)cc1F)N1CC(O)([C@@H]2CCCCN2)C1 [Cobimetinib (GDC-0973. RG7420)]", "Euclidean distance": 2.92}
{"Molecule": "COc1cc(OC)c(/C=C/S(=O)(=O)Cc2ccc(OC)c(NCC(=O)O)c2)c(OC)c1", "Euclidean distance": 2.84}
{"Molecule": "CC(C)CN(C[C@@H](O)[C@H](Cc1ccccc1)NC(=O)O[C@H]1CO[C@H]2OCC[C@H]21)S(=O)(=O)c1ccc(N)cc1 [Darunavir Ethanolate]", "Euclidean distance": 0.575}
{"Molecule": "CC/C(=C(\\c1ccccc1)c1ccc(OCCN(C)C)cc1)c1ccccc1 [Tamoxifen Citrate]", "Euclidean distance": 1.05}
{"Molecule": "CN1[C@@H](CC(=O)c2ccccc2)CCC[C@H]1C[C@H](O)c1ccccc1 [Lobeline hydrochloride]", "Euclidean distance": 1.09}
{"Molecule": "Cc1onc(-c2ccccc2Cl)c1C(=O)N[C@@H]1C(=O)N2[C@@H]1SC(C)(C)[C@@H]2C(=O)O [Cloxacillin Sodium]", "Euclidean distance": 0.711}
{"Molecule": "O=S(=O)(c1ccccc1)N(CC(F)(F)F)c1ccc(C(O)(C(F)(F)F)C(F)(F)F)cc1", "Euclidean distance": 1.13}
